- Target of assay: binding partner of C5A (XPA23)
- Experimental protocol: Biacore, mutant vs original C5A (XPA23)
Rule: measured fold difference in affinity in comparison to original below 0.2 fold gets yes (1); anything equal to or greater than 0.2 fold gets no (0).

Worked cases, answers included:
Binder | Class
C5A (XPA23) light chain variable region D92I (antibody, V domains shown) VH: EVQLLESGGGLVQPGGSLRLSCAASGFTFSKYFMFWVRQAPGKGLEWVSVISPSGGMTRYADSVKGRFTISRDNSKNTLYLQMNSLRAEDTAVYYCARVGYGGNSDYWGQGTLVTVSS VL: DIQMTQSPSSVSASVGDRLTIICRASQDINRWLAWYQQTPGNAPKLLIHSATSLQSGVPSRFSGSGSGTDFTLTINSLQPEDFATYYCQQAISFPLTFGGGTKVEIK | no (0)
C5A (XPA23) light chain variable region F94P (antibody, V domains shown) VH: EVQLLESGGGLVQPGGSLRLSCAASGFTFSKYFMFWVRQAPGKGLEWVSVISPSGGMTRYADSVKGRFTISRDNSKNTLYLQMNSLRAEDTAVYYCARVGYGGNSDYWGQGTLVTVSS VL: DIQMTQSPSSVSASVGDRLTIICRASQDINRWLAWYQQTPGNAPKLLIHSATSLQSGVPSRFSGSGSGTDFTLTINSLQPEDFATYYCQQADSPPLTFGGGTKVEIK | yes (1)
C5A (XPA23) light chain variable region D92L (antibody, V domains shown) VH: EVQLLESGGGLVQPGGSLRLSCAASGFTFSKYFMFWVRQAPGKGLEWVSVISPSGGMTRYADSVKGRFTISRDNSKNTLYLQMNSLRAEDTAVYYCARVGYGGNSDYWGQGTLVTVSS VL: DIQMTQSPSSVSASVGDRLTIICRASQDINRWLAWYQQTPGNAPKLLIHSATSLQSGVPSRFSGSGSGTDFTLTINSLQPEDFATYYCQQALSFPLTFGGGTKVEIK | yes (1)

Field: next binder
Q: Please determine if C5A (XPA23) light chain variable region S93A (antibody, V domains shown) VH: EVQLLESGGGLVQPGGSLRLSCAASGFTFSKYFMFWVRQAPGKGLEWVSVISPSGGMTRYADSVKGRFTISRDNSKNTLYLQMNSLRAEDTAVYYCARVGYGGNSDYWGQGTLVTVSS VL: DIQMTQSPSSVSASVGDRLTIICRASQDINRWLAWYQQTPGNAPKLLIHSATSLQSGVPSRFSGSGSGTDFTLTINSLQPEDFATYYCQQADAFPLTFGGGTKVEIK is below 0.2 fold in terms of fold difference in affinity in comparison to original.
Ans: no (0)
